- System: DGAT
- assay_info: Assay for inhibitory activity against DGAT ([14C]triacylglycerol formation, rat microsomal protein as enzyme source)
- Assay type: biochemical
- run_parameters: 25 μM; rat microsomal protein as enzyme source

compound	DGAT (inhibition % in 25 μM) / %
CC(C)(C)OC(=O)n1cc(/C=C/C(=O)Nc2cccc(C(=O)NCc3ccco3)c2)c2ccccc21 [Compound 10]	78.68
CN(C)CCn1cc(/C=C/C(=O)Nc2cccc(C(=O)NCc3ccco3)c2)c2ccccc21 [Compound 12]	−0.38
O=C(/C=C/c1c[nH]c2ccccc12)Nc1cccc(C(=O)NCc2ccco2)c1 [Compound 9]	13.24
O=C(/C=C/c1cn(Cc2ccccc2)c2ccccc12)Nc1cccc(C(=O)NCc2ccco2)c1 [Compound 11]	64.13
CC(=O)n1cc(/C=C/C(=O)Nc2cccc(C(=O)NCc3ccco3)c2)c2ccccc21 [Compound 16]	39.82
COC(=O)c1cccc(NC(=O)/C=C/c2c[nH]c3ccccc23)c1 [Compound 4]	18.72
NC(=O)c1cccc(NC(=O)CCc2c[nH]c3ccccc23)c1 [Compound 1]	4.66
O=C(/C=C/c1c[nH]c2ccccc12)Nc1cccc(C(=O)NCCCN2CCOCC2)c1 [Compound 8]	2.05
O=C(CCc1c[nH]c2ccccc12)Nc1cccc(C(=O)O)c1 [Compound 5]	0.08
NC(=O)c1cccc(NC(=O)/C=C/c2c[nH]c3ccccc23)c1 [Compound 2]	19.36
CC(C)(C)OC(=O)Cn1cc(/C=C/C(=O)Nc2cccc(C(=O)NCc3ccco3)c2)c2ccccc21 [Compound 13]	53.15
O=C(/C=C/c1c[nH]c2ccccc12)Nc1cccc(C(=O)O)c1 [Compound 6]	11.52
O=C(/C=C/c1cn(S(=O)(=O)Cc2ccccc2)c2ccccc12)Nc1cccc(C(=O)NCc2ccco2)c1 [Compound 14]	50.89
O=C(/C=C/c1cn(S(=O)(=O)c2cccs2)c2ccccc12)Nc1cccc(C(=O)NCc2ccco2)c1 [Compound 15]	49.88
O=C(/C=C/c1c[nH]c2ccccc12)Nc1cccc(C(=O)NCCN2CCCCC2)c1 [Compound 7]	−3.11

====

Quick list: DGAT (inhibition % in 5 μM) per entry.
- Test system: DGAT
- assay_info: Assay for inhibitory activity against DGAT ([14C]triacylglycerol formation, rat microsomal protein as enzyme source)
- Assay type: biochemical
- run_parameters: 5 μM; rat microsomal protein as enzyme source

entry_smiles	DGAT (inhibition % in 5 μM), %
O=C(/C=C/c1cn(S(=O)(=O)Cc2ccccc2)c2ccccc12)Nc1cccc(C(=O)NCc2ccco2)c1	43.19
O=C(/C=C/c1c[nH]c2ccccc12)Nc1cccc(C(=O)NCc2ccco2)c1	2.72
CC(=O)n1cc(/C=C/C(=O)Nc2cccc(C(=O)NCc3ccco3)c2)c2ccccc21	−10.09
O=C(/C=C/c1cn(S(=O)(=O)c2cccs2)c2ccccc12)Nc1cccc(C(=O)NCc2ccco2)c1	40.88
CC(C)(C)OC(=O)Cn1cc(/C=C/C(=O)Nc2cccc(C(=O)NCc3ccco3)c2)c2ccccc21	−0.95
O=C(/C=C/c1cn(Cc2ccccc2)c2ccccc12)Nc1cccc(C(=O)NCc2ccco2)c1	54.09
CN(C)CCn1cc(/C=C/C(=O)Nc2cccc(C(=O)NCc3ccco3)c2)c2ccccc21	−11.04
CC(C)(C)OC(=O)n1cc(/C=C/C(=O)Nc2cccc(C(=O)NCc3ccco3)c2)c2ccccc21	60.22
O=C(/C=C/c1c[nH]c2ccccc12)Nc1cccc(C(=O)NCCCN2CCOCC2)c1	3.06
O=C(/C=C/c1c[nH]c2ccccc12)Nc1cccc(C(=O)NCCN2CCCCC2)c1	−5.29

Origin of measurements: patent US7902190B2
